# MCHC annotations
species on record: Rattus norvegicus; assay: Open TG-GATES - Regimen: Single; type: toxicity, organism-based, Sprague-Dawley; parameters: regimen Single, gender Male, age 6 weeks; conditions: in vivo, po, 300 mg/kg, 6 h, tissue Blood, route gavage, dose level Middle
I only need the number, in %, no unit after it.

COC1=CC(=O)C[C@@H](C)[C@]12Oc1c(Cl)c(OC)cc(OC)c1C2=O [GRISEOFULVIN] = 33.6
CCOC(=O)CCC(=O)O[C@H]1[C@H](O[C@@H]2[C@@H](C)[C@H](O[C@H]3C[C@@](C)(OC)[C@@H](O)[C@H](C)O3)[C@@H](C)C(=O)O[C@H](CC)[C@@](C)(O)[C@H](O)[C@@H](C)C(=O)[C@H](C)C[C@@]2(C)O)O[C@H](C)C[C@@H]1N(C)C [ERYTHROMYCIN ETHYLSUCCINATE] = 32.8
COc1ccc2[nH]c([S+]([O-])Cc3ncc(C)c(OC)c3C)nc2c1 (centres undefined) [OMEPRAZOLE] = 34.3

Now let's try a different one.
Task: Give its MCHC value. Item: NC(N)=Nc1nc(CSCCC(N)=NS(N)(=O)=O)cs1 [FAMOTIDINE]
Result: 35.6

* * *

species: Rattus norvegicus; assay: Open TG-GATES - Regimen: Daily Repeat; assay type: toxicity, organism-based, Sprague-Dawley; set-up: regimen Daily Repeat, gender Male, age 6 weeks; details: in vivo, po, 0 mg/kg, […], tissue Blood, route gavage, dose level Control, time 28 day
# if measured Plat < 100 x10_4/uL: label 1  # else: label 0

COc1ccc2[nH]c([S+]([O-])Cc3ncc(C)c(OC)c3C)nc2c1 (stereo not drawn) = label 0

Task: I wonder whether NNC(=O)c1ccncc1 has Plat below 100 x10_4/uL. Can you tell?
Result: label 0

Task: Identify whether the compound CN(C)CCCN1c2ccccc2CCc2ccccc21 records Plat below 100 x10_4/uL.
Result: label 1

Task: Given the entry CC1=C(/C=C/C(C)=C/C=C/C(C)=C/CO)C(C)(C)CCC1 , would its reported Plat be below 100 x10_4/uL?
Result: label 0

Task: For COC1=CC(=O)C[C@@H](C)[C@]12Oc1c(Cl)c(OC)cc(OC)c1C2=O , is the recorded Plat below the cut-off of 100 x10_4/uL?
Result: label 0

Task: Please state whether Plat is below 100 x10_4/uL for CCCNC(=O)NS(=O)(=O)c1ccc(Cl)cc1 [CHLORPROPAMIDE]
Result: label 1

Task: Confirm or reject: Plat of O=C(CCCN1CCC(O)(c2ccc(Cl)cc2)CC1)c1ccc(F)cc1 lies strictly below 100 x10_4/uL
Result: label 0

* * *

organism: Rattus norvegicus; assay: Open TG-GATES - Regimen: Single; assay type: toxicity, organism-based, Sprague-Dawley; set-up: regimen Single, gender Male, age 6 weeks; conditions: in vivo, po, 10 mg/kg, 3 h, tissue Plasma, route gavage, dose level Low
measure: RALB (g/dL)
Note: unit g/dL is implicit; provide only the numeric part.

Previously resolved entries follow.
CN(C)CCCN1c2ccccc2CCc2ccc(Cl)cc21 = 2.5
CC(C)OC(=O)C(C)(C)Oc1ccc(C(=O)c2ccc(Cl)cc2)cc1 [FENOFIBRATE] = 2.4
CN(C)CCCN1c2ccccc2CCc2ccccc21 = 2.6
CN(C)CCN(Cc1cccs1)c1ccccn1 = 3

Task: Fill in: RALB of CC1=C(/C=C/C(C)=C/C=C/C(C)=C/CO)C(C)(C)CCC1 is ___
Result: 3.2
